Each recorded value in this set is attributed to patent US20060025566A1.

Target: human growth hormone secretagogue receptor (hGHS-R1a) (Homo sapiens)
Construct: purchased PerkinElmer BioSignal #RBHGHSM, lot#1887; host or cells: HEK-293, stably transfected (membranes)
Sequence (Q92847 whole entry): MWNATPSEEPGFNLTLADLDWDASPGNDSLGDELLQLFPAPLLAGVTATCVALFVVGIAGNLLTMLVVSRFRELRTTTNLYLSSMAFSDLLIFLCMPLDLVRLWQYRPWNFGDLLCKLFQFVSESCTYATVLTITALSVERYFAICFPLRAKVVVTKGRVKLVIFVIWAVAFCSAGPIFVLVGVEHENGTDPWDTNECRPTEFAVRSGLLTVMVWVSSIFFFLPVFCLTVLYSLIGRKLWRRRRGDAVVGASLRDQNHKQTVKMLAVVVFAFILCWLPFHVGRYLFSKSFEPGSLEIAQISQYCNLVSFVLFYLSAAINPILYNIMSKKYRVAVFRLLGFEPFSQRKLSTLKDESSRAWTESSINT
Assay: Competitive radioligand binding assay (ghrelin receptor), [125I]-ghrelin displacement on GHS-R/HEK 293 membranes
Settings: second table titled 3C (compounds 435-449), human ghrelin receptor; read-out: Ki
Experimental: The competitive binding assay at the human growth hormone secretagogue receptor (hGHS-R1a) was carried out analogously to assays described in the literature. Multiscreen Harvest plates-GF/C (Millipore, #MAHFC 1H60) • 4. […] Plates were sealed with TopSeal-A, vortexed gently and incubated at rt for 30 min. […] Results were expressed as counts per minute (cpm). Data were analyzed by GraphPad Prism (GraphPad Software, San Diego, Calif.) using a variable slope non-linear regression analysis. […]
Ki values for the compounds below.

# compound, Ki
rows = [
    ("CC(C)CC1NCCOc2ccccc2/C=C/CNC(=O)C(Cc2c[nH]cn2)NC(=O)C2(CCCC2)NC1=O (single isomer, unassigned) [444a]", "> 10000 nM"),
]

Consider the compound CC1C(=O)NC(Cc2ccc(F)cc2)C(=O)NCCOCCOCCNC(C2CC2)C(=O)N1C (single isomer, unassigned) [446a] . State its measured Ki.
1000 to 10000 nM

# return recorded Ki for entry CCC(C)C1NCCOc2ccccc2/C=C/CNC(=O)C(CO)NC(=O)C2(CCCC2)NC1=O (single isomer, unassigned) [442a]
> 10000 nM

Please supply the value of reported Ki for the item "O=C1NC/C=C/c2ccccc2OCCNC2(CCCC2)C(=O)NC2(CCCC2)C(=O)N[C@H]1Cc1cccc(Cl)c1"
0.1 to 10 nM

Give a short answer stating reported Ki for CCC(C)C1NCCOc2ncccc2CCCNC(=O)C(Cc2cccc(Cl)c2)NC(=O)C2(CCCC2)NC1=O (centres unmarked) .
1000 to 10000 nM

Give the value of Ki reported for the following: CCC(C)C1NCCOc2ccccc2CCCNC(=O)C(Cc2ccc(O)cc2)NC(=O)C(C)N(C)C1=O (centres unmarked)
10 to 100 nM

Using known records, supply Ki for CCC(C)C1NCCOc2ccccc2C=CCNC(=O)C(Cc2ccc(C(=O)O)cc2)NC(=O)C2(CCCC2)NC1=O (centres unmarked)
1000 to 10000 nM

Complete the entry with Ki for CCC(C)C1NCCOc2ccccc2/C=C/CNC(=O)C(COC)NC(=O)C2(CCCC2)NC1=O (single isomer, unassigned) [443a]
> 10000 nM
